The measured values listed here are drawn from patent US6534524B1.

Test: Determination of inhibitor concentration in mouse plasma after intraperitoneal and oral dosing
Format: in vivo
Conditions: IP, 25 mg/kg, vehicle PEG400:H2O pH 2.3 30:70
Threshold check on plasma half-life (T1/2): at or above 3 h gives Satisfied, strictly below gives Not satisfied.

{"compound": "Cc1cc(C(=O)Nc2cccc(C(=O)c3ccc4c(/C=C/c5ccccn5)n[nH]c4c3)c2)n(C)n1", "category_label": "Satisfied"}
{"compound": "CC(C)ONC(=O)c1ccccc1Sc1ccc2c(/C=C/c3ccccn3)n[nH]c2c1", "category_label": "Not satisfied"}
{"compound": "CCn1nc(C)cc1C(=O)Nc1cccc(Oc2ccc3c(/C=C/c4ccccn4)n[nH]c3c2)c1", "category_label": "Satisfied"}
{"compound": "CCn1nc(C)cc1C(=O)Nc1cc(C(=O)c2ccc3c(/C=C/c4ccccn4)n[nH]c3c2)ccc1C [Example 41(ee)]", "category_label": "Satisfied"}
{"compound": "C=C(C)CNC(=O)c1ccccc1Sc1ccc2c(/C=C/c3ccccn3)n[nH]c2c1 [Example 35(ee)]", "category_label": "Not satisfied"}

Inquiry: Hi, just wondering whether O=C(NC1CC1)c1ccccc1Sc1ccc2c(/C=C/c3ccccn3)n[nH]c2c1 [Example 33(e)] shows plasma half-life (T1/2) of 3 h or higher.
Reply text: Not satisfied

Inquiry: Please give the result for O=C(NCC(F)(F)F)c1ccccc1Sc1ccc2c(/C=C/c3ccccn3)n[nH]c2c1 too.
Reply text: Not satisfied

Inquiry: Lookup O=C(NNC(=O)c1ccccc1Sc1ccc2c(/C=C/c3ccccn3)n[nH]c2c1)c1cccs1
Reply text: Satisfied

Inquiry: Try the compound C=CCONC(=O)c1ccccc1Sc1ccc2c(/C=C/c3ccccn3)n[nH]c2c1
Reply text: Not satisfied

Inquiry: Now give it for CCNC(=O)c1ccccc1Sc1ccc2c(/C=C/c3ccccn3)n[nH]c2c1 too.
Reply text: Satisfied

Inquiry: Please answer likewise for O=C(NC1CCC1)c1ccccc1Sc1ccc2c(/C=C/c3ccccn3)n[nH]c2c1
Reply text: Satisfied

Inquiry: How about this compound: Cc1cc(C(=O)Nc2cccc(Oc3ccc4c(/C=C/c5ccccn5)n[nH]c4c3)c2)nn1C
Reply text: Not satisfied

Inquiry: Continue with Cn1cccc1C(=O)NNC(=O)c1ccccc1Sc1ccc2c(/C=C/c3ccccn3)n[nH]c2c1 [Example 35(e)]
Reply text: Not satisfied

Inquiry: Same for O=C(c1cccc(NC(=O)C2C[C@H]2c2ccccc2)c1)c1ccc2c(/C=C/c3ccccn3)n[nH]c2c1 (stereo partly drawn)
Reply text: Satisfied

Inquiry: How about this compound: CC(C)NC(=O)c1ccccc1Sc1ccc2c(/C=C/c3ccccn3)n[nH]c2c1
Reply text: Not satisfied
